Attribution: PubChem BioAssay AID1159580

METHOD: chemical genetic growth profiling, strain panel (AID 1159580);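 also: tested at 20 µM; growth read once vehicle control cultures reached saturation at 30 °C; 1 = growth at the plate median or of vehicle wells; lower values mean less growth of the strain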
SETUP_CONDITIONS: S. cerevisiae deletion strains, growth OD, locus YJR043C, strain POL32, stronger effect = lower value
The whole screen tested about 5,500 compounds, of which about 2,000 (36%) were called active. Roughly 18% stayed inconclusive and do not appear here. Some of the results follow.
As shown below, each of these compounds has a reported normalized growth value.

{"COMPOUND": "CC(C)CC(NC(=O)OCC1c2ccccc2-c2ccccc21)C(=O)O (stereo not drawn)", "normalized growth": "1.02 (inactive)"}
{"COMPOUND": "CC(C)CCCC(C)[C@H]1CCC2C3C(=O)C=C4C[C@@H](O)CC[C@]4(C)C3CC[C@@]21C (stereo partly drawn)", "normalized growth": "1.01 (inactive)"}
{"COMPOUND": "O=C(O)C1C2CCC1C(O)C2 (stereo not drawn)", "normalized growth": "1 (inactive)"}
{"COMPOUND": "CC(=O)Oc1ccc(C(c2ccc(OC(C)=O)cc2)c2ccccn2)cc1", "normalized growth": "1.02 (inactive)"}
{"COMPOUND": "CC(CCc1ccccc1)NCC(O)c1ccc(O)c(C(N)=O)c1 (stereo not drawn)", "normalized growth": "0.986 (inactive)"}
{"COMPOUND": "c1ccc(-c2csc(-c3ccncc3)n2)cc1", "normalized growth": "0.974 (inactive)"}
{"COMPOUND": "CCOC(CN(c1ccc(F)cc1)S(=O)(=O)c1ccc(F)cc1F)OCC", "normalized growth": "0.989 (inactive)"}
{"COMPOUND": "OC(c1ccccc1)(c1ccccc1)c1ccncc1", "normalized growth": "1.01 (inactive)"}
{"COMPOUND": "CC(=O)O[C@H]1CC[C@@]2(C)C(=CC(=O)C3C4CCC(C(C)CCCC(C)C)[C@@]4(C)CCC32)C1 (stereo partly drawn)", "normalized growth": "1.01 (inactive)"}
{"COMPOUND": "CC(=O)Oc1cccc(O)c1", "normalized growth": "0.999 (inactive)"}
{"COMPOUND": "Cc1cccc(Cn2nc(C(C)(C)C)cc2C(=O)O)c1", "normalized growth": "0.971 (inactive)"}
{"COMPOUND": "CN(C)CCCN1c2ccccc2Sc2ccc(C(F)(F)F)cc21", "normalized growth": "1 (inactive)"}
{"COMPOUND": "O=c1[nH]cnc2ccsc12", "normalized growth": "0.996 (inactive)"}
{"COMPOUND": "Clc1cncc(Cl)c1N/N=C\\C1CC2C=CC1C2 (stereo not drawn)", "normalized growth": "1 (inactive)"}
{"COMPOUND": "N/C(=N/OC(=O)c1ccccc1)c1ccc(-c2csnn2)cc1", "normalized growth": "1.01 (inactive)"}
{"COMPOUND": "c1ccc(-c2nc(-c3cccs3)cs2)cc1", "normalized growth": "0.973 (inactive)"}
{"COMPOUND": "COC(=O)c1ccc(S(=O)(=O)N2CCC(C(N)=O)CC2)n1C", "normalized growth": "0.983 (inactive)"}
{"COMPOUND": "CC(=O)Oc1ccc(/C=C/c2cc(OC(C)=O)cc(OC(C)=O)c2)cc1", "normalized growth": "0.979 (inactive)"}
